Where do these numbers come from? They come from patent US20210386367A1.

So I've got a bunch of compounds here, and I need their Mode values.
Tested on: Bacteroides non fragilis
Test: Agar dilution MIC, 29 clinical isolates
Assay type: cell-based, Bacteroides spp.
Conditions: modal MIC; 29 Bacteroides non-fragilis clinical isolates
Answers are plain numbers, in µg/mL.

Examples with their reported Mode follow.
MOL SMILES: Cc1ncc([N+](=O)[O-])n1CCO
SCALE UNIT: µg/mL
Mode: 0.5
//
MOL SMILES: CO[C@H]1/C=C/O[C@@]2(C)Oc3c(C)c(O)c4c(O)c(c5c(nc6cc(C)ccn65)c4c3C2=O)NC(=O)/C(C)=C\C=C\[C@H](C)[C@H](O)[C@@H](C)[C@@H](O)[C@@H](C)[C@H](OC(C)=O)[C@@H]1C
SCALE UNIT: µg/mL
Mode: 0.12

**Query** Answer with the recorded Mode for the compound listed here: C[C@@H](O)[C@H]1C(=O)N2C(C(=O)O)=C(S[C@@H]3CN[C@H](C(=O)N(C)C)C3)[C@H](C)[C@H]12
**Result** 0.5
